meta.source: PubChem BioAssay (NCI)

Test system: UO-31 renal
ASSAY OVERVIEW: NCI-60 one-dose screen, 48 h (100 = growth as untreated, 0 = no growth, -100 = all killed)
RUN PARAMETERS: 10 µM unless noted
Description: Growth inhibition of the UO-31 human tumor cell line is measured as a screen for anti-cancer activity. Cells are grown in 96 well plates and exposed to the test compound for 48 hours. Compounds are tested at a single concentration, which is 10^-5 M for most compounds. The reported endpoint is percent growth (GI% or GIPRCNT), where numbers from 0 - 100% represent growth inhibition, and numbers from -100% - 0 represent cell death. For example, a value of 40 represents 60% growth inhibition. […]
The panel holds about 83,000 compounds, 20% with a hit somewhere; the sample as a whole holds those more often. The source made the active and inactive calls. The calls were made as follows: active = growth percent below 10; inactive = the rest.
Attribute: growth

Fc1c[c-]c(-c2ccccn2)c(F)c1.[CH3-].[Pt+2].c1ccc(P(C[PH+](c2ccccc2)c2ccccc2)c2ccccc2)cc1 :: -98.2% (active)
N#Cc1c(-c2ccccn2)[nH]c(=S)[nH]c1=O :: 84.6% (inactive)
CCN(CC)CCN1C(=O)c2c(c(C)c3c(oc4cc(O)ccc43)c2C)C1=O :: 69.2% (inactive)
O=c1c2cc(F)ccc2sc2c(NCCN3CCCCC3)nc3ccccc3c12 :: 27.1% (inactive)
COc1ccc(-c2csc(C3=C(O)CN(CCCN4CCCC4=O)C3=N)n2)cc1OC :: 83.8% (inactive)
O=S(=O)(Nc1cccc(Cl)c1)c1ccc(-c2cnc(C3CC3)o2)cc1 :: 35.5% (inactive)

Inquiry: Consider the molecule CC1=C([Se]CC(OC(=O)CC[Se]c2ccccc2)C(=O)NCCCCCC(=O)OCc2ccccc2)C(=O)c2ccccc2C1=O (centres undefined) and give its measured growth.
Reply text: 15.4% (inactive)

Inquiry: Entry O=C(CCCCCCN1CC(=O)N2[C@@H](c3ccccc3Cl)c3[nH]c4ccccc4c3C[C@H]2C1=O)NO : reported growth = ?
Reply text: 55.6% (inactive)

Inquiry: Request the reported growth associated with CCN(CC)c1ccc2nc3c4ccccc4c(=NC(=O)c4ccccc4-c4c5ccc(N(CC)CC)cc5[o+]c5cc(N(CC)CC)ccc45)cc-3oc2c1
Reply text: 32.6% (inactive)

Inquiry: Record request: growth value, item CN1CCN(CC(=O)Nc2nc(-c3cccc(NS(=O)(=O)c4cccc5c(N(C)C)cccc45)c3)cs2)CC1
Reply text: 58.3% (inactive)

Inquiry: Give its growth value. Item: COc1cc2nc(Cl)nc(Nc3ccc(S(=O)(=O)Nc4nccs4)cc3)c2cc1OC
Reply text: 85.4% (inactive)

Inquiry: Name the recorded growth for COc1cccc(-c2nn(-c3ccccc3)cc2-c2ccnc(NCCNC(=O)Nc3cccc(C(F)(F)F)c3)c2)c1 .
Reply text: -21.9% (active)

Inquiry: Bench note: what growth did S=C(Cc1ccc2c(c1)CCCC2)N1CCOCC1 show?
Reply text: 92.2% (inactive)

Inquiry: # get_value(readout='growth', item= CCN1CCN(c2nc(C)cc(NCc3cc(Nc4ccnc5cc(Cl)ccc45)ccc3F)n2)CC1 )
Reply text: 17.1% (inactive)

Inquiry: Any idea what growth was measured for COc1ccc2c(c1)CCCN2c1c2ccccc2nc2ccccc12 ?
Reply text: 29.8% (inactive)

Inquiry: Please report the recorded growth for CC(C)C(=O)Nc1n[nH]c2cc(-c3cccc(NS(=O)(=O)C4CC4)c3)ccc12 .
Reply text: 56.7% (inactive)

Inquiry: May I ask what growth has been recorded for O=C(NCCc1ccc(O)c(O)c1)C12CC3CC(CC(C3)C1)C2 ?
Reply text: 66.2% (inactive)

Inquiry: Consider the molecule shown here: COC(=O)CCC1=C(C)C2=NC1=CC1=NC(=CC3=NC(=Cc4[nH]c(/c(=C(/C)O)c4C)=C2)C(C(C)=O)=C3C)C(C)=C1CCC(=O)OC What is its recorded growth?
Reply text: 100% (inactive)

Inquiry: Quick one: growth of CC(C)CC(NC(=O)CN(Cc1ccccc1)S(C)(=O)=O)C(=O)O (centres undefined) ?
Reply text: 96.7% (inactive)
